Data credit: paper PMC8815882

Tested on: M. mycetomatis genome strain MM55
Test: CLSI M38-A2 based in vitro susceptibility screening (XTT or resazurin), growth at fixed concentration
Assay type: cell-based, Madurella mycetomatis
Conditions: Madurella mycetomatis, 25 uM, replicate C, M. mycetomatis MM55; read-out: Percentage survival at 25um, 25 uM C
quantityKind: activity at 25 µM (%)
State the answer as a number, implicitly in %.

Below: 5 compounds and their reported activity at 25 µM.
| compound | targetEntity | activity at 25 µM (%) |
| --- | --- | --- |
| CN1CCN(c2ccc3[nH]c(-c4ccc5[nH]c(-c6ccc(O)cc6)nc5c4)nc3c2)CC1 [MMV020752] | M. mycetomatis genome strain MM55 | 62.2 |
| CC1(C)Cc2c(C#N)c(SCCc3ccccc3)nc(N3CCOCC3)c2CO1 [MMV1549626] | M. mycetomatis genome strain MM55 | 60.3 |
| O=C(CCCC(F)(F)F)N1CCC(c2nc(-c3nccs3)no2)CC1 [MMV1582491] | M. mycetomatis genome strain MM55 | 70.4 |
| O=C(Nc1ccccc1C(=O)O)c1cccc(Oc2ccccc2)c1 [MMV1579784] | M. mycetomatis genome strain MM55 | 111 |
| O=C(Nc1ccccc1)N(Cc1cc(Br)ccc1O)c1ccc(F)cc1 [MMV1581552] | M. mycetomatis genome strain MM55 | 63.3 |

In the following, a different compound is considered.
Field activity at 25 µM (entry CCc1cc(O)c(Oc2cccnc2N)cc1F [MMV1580854] ) reads 72.9

====

System: M. mycetomatis genome strain MM55
Experiment: CLSI M38-A2 based in vitro susceptibility screening (XTT or resazurin), growth at fixed concentration
Assay type: cell-based, Madurella mycetomatis
Conditions: Madurella mycetomatis, 25 uM, replicate A; read-out: Percentage survival at 25um, 25 um A
Labelling: activity at 25 µM reported below 90% becomes yes; at or above becomes no.

Previously resolved entries follow.
| compound | targetEntity | assignedClass |
| --- | --- | --- |
| O=C(O)C(Cc1c[nH]c2ccccc12)N1C(=O)c2ccccc2C1=O (stereo not shown) | M. mycetomatis genome strain MM55 | no |
| O=C(O)c1cc(-c2ccccc2)nc2ccccc12 | M. mycetomatis genome strain MM55 | no |
| CC(C)n1cnc2c(NCc3ccccc3)nc(NCc3ccccc3)nc21 | M. mycetomatis genome strain MM55 | yes |
| CC[C@@H](CO)NCCN[C@@H](CC)CO | M. mycetomatis genome strain MM55 | yes |
| N=C(N)NCCCCC(=O)Nc1cc(C(F)(F)F)cc(NC(=O)c2cc(C(=O)Nc3cc(C(F)(F)F)cc(NC(=O)CCCCNC(=N)N)c3O[C@@H]3CCNC3)ncn2)c1O[C@@H]1CCNC1 | M. mycetomatis genome strain MM55 | yes |

# TODO verify activity at 25 µM < 90% strictly for this compound: `COc1ccc(SCC(=O)N2c3ccccc3Sc3ccccc32)cc1` yes

# TODO verify activity at 25 µM < 90% strictly for this compound: `c1ccc(-c2nnc3c4ccccc4c(N4CCNCC4)nn23)cc1` no

# TODO verify activity at 25 µM < 90% strictly for this compound: COc1ccc(C2CNC(=O)C2)cc1OC1CCCC1 (stereo not shown) yes

# TODO verify activity at 25 µM < 90% strictly for this compound: `Nc1ccc2oc(=O)ccc2c1I` yes

# TODO verify activity at 25 µM < 90% strictly for this compound: O[C@@](Cn1cnnn1)(c1ccc(F)cc1F)C(F)(F)c1ccc(-c2ccc(OCC(F)(F)F)cc2)cn1 [MMV1634386, Oteseconazole, reference compound] yes

# TODO verify activity at 25 µM < 90% strictly for this compound: `CC(C)(C)c1cccc(-c2nc3cc(C(=N)N)ccc3[nH]2)c1O` yes

# TODO verify activity at 25 µM < 90% strictly for this compound: `C[C@H](NC(=O)C(=O)Nc1ccccc1C(C)(C)C)C(=O)N[C@@H](CC(=O)O)C(=O)COc1c(F)c(F)cc(F)c1F` yes

# TODO verify activity at 25 µM < 90% strictly for this compound: `CCOC(=O)/C=C/[C@H](C[C@@H]1CCNC1=O)NC(=O)[C@H](CC)n1cccc(NC(=O)c2cc(C)on2)c1=O` yes

# TODO verify activity at 25 µM < 90% strictly for this compound: `Nc1cccc(-c2nc(N)nc(NC3Cc4ccccc4C3)n2)c1` no

# TODO verify activity at 25 µM < 90% strictly for this compound: `Nc1nc2c(ncn2[C@@H]2O[C@H](CO)[C@@H](O)[C@H]2F)c(=O)[nH]1` yes

# TODO verify activity at 25 µM < 90% strictly for this compound: `Cc1cc(Nc2ccc(F)cc2)nc(SCc2nc3ccccc3[nH]2)n1` no
